These data points were gathered from PubChem BioAssay (NCI).

- System: RXF 393 renal
- Experimental Protocol: NCI tumour cell line growth inhibition, 48 h

| Compound | Study System | Unit Of Measurement | Relation Symbol | TGI |
| --- | --- | --- | --- | --- |
| CCOC(=O)C1=CNC(C(=O)OCC)C1c1cccn1-c1ccccc1 (stereo not given) | RXF 393 renal | µM | = | 69 |
| CCCCN(CC)CCCCCCCCCCN1CCCc2cc(OC)ccc21 | RXF 393 renal | µM | = | 4.93 |
| [N-]=[N+]=CC(=O)OCC1NC(=O)C(COC(=O)C=[N+]=[N-])NC1=O (stereo not given) | RXF 393 renal | µM | > | 100 |
| CC1(C)SCc2nc3ccccc3n21 | RXF 393 renal | µM | > | 100 |
| CC(C)OC(=O)NNc1cccc(Cl)c1 | RXF 393 renal | µM | > | 100 |

###

Each entry below lists one item and its recorded log10 TGI value.
- Test system: HT29 colon
- Experimental Protocol: NCI tumour cell line growth inhibition, 48 h
Parameter: log10 TGI (log10 of the value in µM)

| Compound | Study System | log10 TGI |
| --- | --- | --- |
| COc1cc2c3c(n(CCCN4CCCNCC4)c(=O)c2cc1OC)-c1cc2c(cc1C3=O)OCO2 | HT29 colon | 1.25 |
| CCOC(=O)/C(=C/c1ccccc1Br)P(=O)(OCC)OCC | HT29 colon | 1.14 |
| CCc1ccc(Nc2cc(=O)n(C)c(SCc3ccccc3)n2)cc1 | HT29 colon | 1.78 |
| O=C1C=CC(=O)N1c1ccc(I)cc1 | HT29 colon | 1.65 |
| COc1cc(/C=C/C(=O)c2c(C)nc3ccccc3c2C)ccc1OCCCCOc1cc2c(cc1OC)C(=O)N1CCC[C@H]1C=N2 | HT29 colon | 0.31 |
| FC(F)(F)c1cc(-c2ncn(/C=C\c3nnco3)n2)cc(C(F)(F)F)c1 | HT29 colon | 1.68 |
| CC(C)OCc1cc(CN2CCN(c3cccc(Cl)c3)CC2)c(O)c2ncccc12 | HT29 colon | 1.34 |
| COc1cc2c(cc1OCCCCn1c(-c3cccs3)nc3ccccc31)N=C[C@@H]1CCCN1C2=O | HT29 colon | 1.16 |
| CCc1nc2ccccc2c(=O)n1/N=C(\N=Nc1ccc(Cl)cc1)c1ccccc1 | HT29 colon | 1.57 |
| O=C(O)c1ccc(C(=O)O)c(C(=O)O)c1.[NH-]C1CCCCC1[NH-].[Pt+2] | HT29 colon | 1.74 |
| CCOC(=O)C1=CNC(C(=O)OCC)C1c1cccn1-c1ccccc1 (stereo not drawn) | HT29 colon | 1.70 |

###

- Test system: OVCAR-8 ovarian
- Experimental Protocol: NCI tumour cell line growth inhibition, 48 h
Parameter: TGI (µM)

| Molecule | Relation Symbol | Value Reported |
| --- | --- | --- |
| Cc1ccc(SCC(CF)OC(C)n2cnc3c(Cl)nc(N)nc32)cc1 (stereo unspecified) | > | 100 |
| C/C(=C\CNc1ncnc2c1ncn2CCC(=O)OC(C)(C)C)CO | > | 100 |
| C(=N\NC1=NCCN1)/c1cccc2cc3ccncc3nc12 | = | 5.15 |
| C/C1=C/C[C@@H](/C(C)=C/c2csc(C)n2)OC(=O)C[C@H](O)C(C)(C)C(=O)[C@H](C)[C@@H](O)[C@@H](C)CCC1 | = | 0.295 |
| C/C(=N\O)c1cccc(Nc2cc(-c3ccccc3)nc3c(O)cccc23)c1 | = | 39 |
| O=C(O)c1ccc(C(=O)O)c(C(=O)O)c1.[NH-]C1CCCCC1[NH-].[Pt+2] | = | 60.8 |

###

Known log10(TGI) of a selection of compounds
- Test system: MDA-MB-231 breast
- Experimental Protocol: NCI tumour cell line growth inhibition, 48 h
Parameter: log10(TGI) (log10 of the value in µM)

| Compound | log10(TGI) |
| --- | --- |
| CCOC(=O)[C@@H](C)C[C@H](Cc1ccccc1)NC(=O)c1csc([C@@H](C[C@H](C(C)C)N(C)C(=O)[C@@H](NC(=O)[C@H]2C[C@H](O)CCN2C)C(C)C)OC(C)=O)n1 | 0.51 |
| O=C1C=CC(=O)N1c1ccc(I)cc1 | 1.72 |
| COC(=O)c1ccc(C)cc1C1CN=NC12Cc1cc(C)ccc1C2=O (stereo not given) | 1.81 |
| Cc1ccc(S(=O)(=O)ON2C(=O)c3c(N)c(C#N)c(-c4ccccc4)c(-c4ccccc4)c3C2=O)cc1 | 1.56 |
| O=C1/C(=C\c2ccccc2)CN(C(=O)c2ccccc2)C/C1=C\c1ccccc1 | 0.70 |
| O=C1Nc2ccccc2/C1=C\c1c(-c2ccccc2)nc2n1CCS2 | 1.67 |
| CC(=O)OCC1OC(OC(C)=O)C(Nc2ncc(-c3ccc(C)cc3)s2)C(OC(C)=O)C1OC(C)=O (stereo not given) | 1.70 |
| COc1ncc(-c2ccc3nccc(C#CCN4CCN(S(C)(=O)=O)CC4)c3c2)cc1NS(=O)(=O)c1ccc(F)cc1F | 1.24 |

###

# log10 TGI annotations
- Test system: UO-31 renal
- Experimental Protocol: NCI tumour cell line growth inhibition, 48 h
Parameter: log10 TGI (log10 of the value in µM)

| Compound | Parameter | Value Reported |
| --- | --- | --- |
| COC(=O)c1nc(C(=O)OC)c2c([nH]c3ccccc32)c1C(=O)OC | log10 TGI | 1.88 |
| Cc1ccc(NC(=O)c2nc(S(C)(=O)=O)oc2-c2ccc(F)cc2)cc1Nc1ccc2ncn(C)c(=O)c2c1 | log10 TGI | 0.53 |
| O=[N+]([O-])/C=C/c1cc2ccc3ccccc3c2[nH]1 | log10 TGI | 0.48 |
| C#C[C@]1(O)[C@@H](CO)O[C@@H](n2ccc(N)nc2=O)[C@@H]1O | log10 TGI | -0.40 |
| COc1ncc(-c2ccc3nccc(C#CCN4CCN(S(C)(=O)=O)CC4)c3c2)cc1NS(=O)(=O)c1ccc(F)cc1F | log10 TGI | 0.57 |
| COc1cc(/C=C/C(=O)c2ccc(F)cc2)ccc1OCCCCCOc1cc2c(cc1OC)C(=O)N1CCCC1C=N2 (stereo not given) | log10 TGI | 0.56 |
| CCCCCCCCCCCCCCCC(=O)Nc1ccn(C2CCC(COP(=O)(O)OCC3OC(n4cc(F)c(=O)[nH]c4=O)CC3OC(C)=O)O2)c(=O)n1 (stereo not given) | log10 TGI | 1.46 |
| Brc1ccc(Nc2nc3ccccc3nc2Nc2ccc(Br)cc2)cc1 | log10 TGI | 0.80 |
| COc1cc2c(cc1OCCCCn1c(-c3cccs3)nc3ccccc31)N=C[C@@H]1CCCN1C2=O | log10 TGI | 0.73 |
| C=C(CCC/C(C)=C/C=C/[C@H](C)CCCc1ccoc1)C[C@@H]1OC(=O)[C@H](C)[C@@H]1O | log10 TGI | 1.19 |
| CCC(C)CC(C)C(=O)c1c(O)ccn(O)c1=O (stereo not given) | log10 TGI | 0.63 |
| COc1cc2c3c(n(CCCN4CCCNCC4)c(=O)c2cc1OC)-c1cc2c(cc1C3=O)OCO2 | log10 TGI | 1.11 |
| O=C(NCCc1ccccc1)c1cc(/C=C/c2cc(O)ccc2O)ccc1O | log10 TGI | 0.46 |
| c1ccc2cc(CNCCCCNCCCNCc3ccc4ccccc4c3)ccc2c1 | log10 TGI | 0.45 |
| CCCNCC(O)CNc1ccc(NCC(O)CNCCC)c2c1C(=O)c1ccccc1C2=O (stereo not given) | log10 TGI | 1.50 |
| O=C(NS(=O)(=O)c1ccc(NC[C@H]2COCCO2)c([N+](=O)[O-])c1)c1ccc(N2CCN(CC3=C(c4ccc(Cl)cc4)CC4(CCC4)CC3)CC2)cc1Oc1cnc2[nH]ccc2c1 | log10 TGI | 0.55 |
| CCc1nc2ccccc2c(=O)n1/N=C(\N=Nc1ccc(Cl)cc1)c1ccccc1 | log10 TGI | 1.89 |

###

- Tested on: SF-295 CNS
- Experimental Protocol: NCI tumour cell line growth inhibition, 48 h
Parameter: GI50

| Compound | Value Reported |
| --- | --- |
| NCCCn1c2c(c3ccc([N+](=O)[O-])cc3c1=O)C(=O)c1cc(F)ccc1-2 | 15.7 nM |
| CN(CSc1ccc(Cl)cc1)c1ccc(CSc2ccc(Cl)cc2)cc1 | 2860 nM |
| CCCOc1ccc(/C=N/Nc2cc(C)nc3ccc(Cl)cc23)cc1 | 1720 nM |
| C/C(=N\O)c1cccc(Nc2cc(-c3ccccc3)nc3c(O)cccc23)c1 | 671 nM |
| COc1cc2c3c(n(CCCN4CCCNCC4)c(=O)c2cc1OC)-c1cc2c(cc1C3=O)OCO2 | 200 nM |
| C=C(CN1CCN(c2ccccc2C(F)(F)F)CC1)c1ccc(C(=O)Nc2ccccc2N)cc1 | 5980 nM |
| COc1ccc(/C=C/C(=O)c2ccc(Nc3nc(Nc4ccc(F)cc4)nc(Nc4ccc(Cl)cc4)n3)cc2)cc1 | > 100000 nM |
| Cc1cc(C(O)(c2ccc(Nc3ccccc3)cc2)c2ccc(Nc3ccc(S(=O)(=O)O)cc3)cc2)ccc1N (stereo not given) | 1690 nM |
| Cn1c(NCC(CN2CCCC2)OC(=O)c2ccccc2)cc(=O)n(C)c1=O (stereo not given) | > 100000 nM |
| O=C([O-])CCc1ccccc1.O=C([O-])CCc1ccccc1.O=C([O-])CCc1ccccc1.O=C([O-])CCc1ccccc1.[Mo+2].[Mo+2] | > 100000 nM |
